# reported MFI; entries follow
target: human DLL3 protein expressed on CHO-K1 recombinant cells (human DLL3 extracellular segment fused to EpCAM transmembrane and intracellular regions) (human) (UniProt Q9NYJ7); experiment: FACS, CHO-K1 hDLL3 cells, 0.8 nM antibody
Sequence (Q9NYJ7 other isoform, or with tags, fused parts or gaps limits assumed): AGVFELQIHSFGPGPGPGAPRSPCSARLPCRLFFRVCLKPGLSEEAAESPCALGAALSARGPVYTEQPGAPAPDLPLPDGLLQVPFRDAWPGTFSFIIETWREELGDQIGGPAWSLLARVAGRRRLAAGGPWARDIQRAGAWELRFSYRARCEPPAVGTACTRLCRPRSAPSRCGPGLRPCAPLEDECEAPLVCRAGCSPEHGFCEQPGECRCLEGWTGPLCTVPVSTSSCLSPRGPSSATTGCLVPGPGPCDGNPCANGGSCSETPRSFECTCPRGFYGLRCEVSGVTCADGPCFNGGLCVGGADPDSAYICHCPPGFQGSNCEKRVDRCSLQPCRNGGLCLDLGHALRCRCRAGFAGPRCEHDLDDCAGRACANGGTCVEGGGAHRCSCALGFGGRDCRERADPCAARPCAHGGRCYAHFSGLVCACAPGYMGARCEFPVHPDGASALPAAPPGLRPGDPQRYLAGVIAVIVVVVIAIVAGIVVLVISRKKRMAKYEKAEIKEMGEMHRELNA
The figure you give is taken to be in MFI; do not add the unit.

Hab009VL1aVH1-hFc (scFv, part only; not given: scFv linker and human IgG1 Fc, V domains shown, not shown: another chain or arm of the molecule; a dimerising Fc or GST; small tags and cut ends) VL: DIVMTQSPLSLPVTPGEPASISCRASQTISDYLHWYLQKPGQSPQLLIKYASQSISGVPDRFSGSGSGSDFTLKISRVEAEDVGVYYCQQGHSFPLTFGQGTKLEIK VH: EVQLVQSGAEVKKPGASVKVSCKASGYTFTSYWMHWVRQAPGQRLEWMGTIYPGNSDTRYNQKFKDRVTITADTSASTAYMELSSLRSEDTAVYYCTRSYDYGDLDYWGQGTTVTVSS ... 11000

Inquiry: Requested read-out: MFI. Entry: Hab009VL3aVH1-hFc (Fc fusion, part only; not given: Linker and human IgG1 Fc, not shown: a dimerising Fc or GST) chain, part: DIVMTQSPLSLPVTPGEPASISCRASQTISDYLHWYLQKSHQSPQLLIKYASQSISGVPDRFSGSGSGTDFTLKISRVEAEDVGVYYCQQGHSFPLTFGQGTKLEIKEVQLVQSGAEVKKPGASVKVSCKASGYTFTSYWMHWVRQAPGQRLEWMGTIYPGNSDTRYNQKFKDRVTITADTSASTAYMELSSLRSEDTAVYYCTRSYDYGDLDYWGQGTTVTVSS
Reply text: 11800

Inquiry: Further, for Hab015VL5VH1b-hFc (scFv, part only; not given: VL-VH linker and human IgG1 Fc, V domains shown, not shown: another chain or arm of the molecule; a dimerising Fc or GST; small tags and cut ends) VL: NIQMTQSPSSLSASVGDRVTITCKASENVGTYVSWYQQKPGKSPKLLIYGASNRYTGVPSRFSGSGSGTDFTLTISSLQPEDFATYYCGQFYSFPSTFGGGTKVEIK VH: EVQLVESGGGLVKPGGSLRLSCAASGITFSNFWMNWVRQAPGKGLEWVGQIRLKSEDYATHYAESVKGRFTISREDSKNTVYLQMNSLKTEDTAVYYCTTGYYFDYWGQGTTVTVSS ?
Reply text: 4100

Inquiry: Same again, this time with Hab014VL1VH2-hFc (scFv, part only; not given: VL-VH linker and human IgG1 Fc, V domains shown, not shown: another chain or arm of the molecule; a dimerising Fc or GST; small tags and cut ends) VL: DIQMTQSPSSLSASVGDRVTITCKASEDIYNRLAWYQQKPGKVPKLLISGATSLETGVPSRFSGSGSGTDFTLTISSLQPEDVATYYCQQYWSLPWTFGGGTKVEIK VH: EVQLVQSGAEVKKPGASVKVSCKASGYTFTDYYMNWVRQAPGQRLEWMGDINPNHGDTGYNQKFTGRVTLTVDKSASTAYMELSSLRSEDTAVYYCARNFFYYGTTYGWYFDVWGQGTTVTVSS
Reply text: 9190

Inquiry: Now consider Hab015VL5VH5a-hFc (scFv, part only; not given: scFv linker and human IgG1 Fc, V domains shown, not shown: another chain or arm of the molecule; a dimerising Fc or GST; small tags and cut ends) VL: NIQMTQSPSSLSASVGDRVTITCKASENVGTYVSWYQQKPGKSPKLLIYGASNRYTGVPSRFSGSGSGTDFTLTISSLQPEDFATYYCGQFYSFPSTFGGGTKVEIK VH: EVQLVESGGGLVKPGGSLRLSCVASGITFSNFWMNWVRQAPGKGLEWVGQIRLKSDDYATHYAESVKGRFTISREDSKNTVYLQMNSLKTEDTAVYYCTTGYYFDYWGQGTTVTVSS and answer again.
Reply text: 4640
